# key: entry, value: kon
Target: T1, Biotinylated Human C5aR Peptide (2nd loop), peptide 23 (human, N-terminal biotin)
T1 construct: immobilised on a streptavidin sensor chip for BIACore; also called Biotinylated-Peptide 23; Biot-peptide
T1 peptide: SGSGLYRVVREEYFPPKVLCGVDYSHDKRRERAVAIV
Assay: SPR (BIACore 2000), biotinylated peptide 23 on SA chip, mAb as analyte
Give the value in M⁻¹ s⁻¹ but do not write M⁻¹ s⁻¹ after it.

Recorded kon, per entry:
| binder | measurementLabel | quantitativeReadout |
| --- | --- | --- |
| MAb 3C5 (antibody, V domains shown) VH: DVQLQESGPGLVKPSQSLSLTCSVTGYSITSGNYWNWIRQFPGKKLEWMGHISYDGNNKYNPSLKNRISITRDTSKNQFFLRLNSVTAEDTAAYYCALFYFDYASFTYWGQGTLVTVSA VL: DVVMTQTPLSLPVSLGDQASISCRSSQSLVHSNGNTYLHWYLRKPGQSPKLLIYKVSNRFSGVPDRFSGSGSGTDFTLKISRVEAEDLGVYFCSQSTHVPPTFGAGTKLELK | kon | 3.3e+06 |
| MAb 7F3 (antibody, V domains shown) VH: QVQLQQSGPELVKPGASVKISCKASGYAFSNSWMNWVKQRPGKGLEWIGRIYPGDGDTKYNGKFKGKATLTADKSSSTAYMQLSSLTSEDSAVYFCARFLLISTVTAVDYWGQGTTLTVSS VL: DVVMTQSPLSLPVSLGNQASISCRSSQSLVHSNGNTYLHWYLQKPGQSPKLLIYKVSNRFSGVPDRFSGSGSGTDFSLKISRVEAEDLGVYFCSQSTLVPLTFGAGTKLELK | kon | 640000 |
| MAb 8G7 (antibody, V domains shown, Mouse monoclonal antibody from a hybridoma (ECACC 06081803); also called 8G7-M6) VH: DIQLQESGPGLVKPSQSLSLTCSVTGYSITSGHYWNWIRQLPGNKMEWMGHISNDGSNRYNPSLKNRISITRDTSKNQFFLKLNSVTTEDTATYYCALFYFAYASFAYWGQGTLVTVSA VL: DVVMTQTPLSLPVSLGDQASISCRSSQSLLHSNGNTYLHWYLQKPGQSPKLLIYKVSTRFSGVPDRFSGSGSGADFTLQISRVEAEDLGVYLCSQSTHVPPTFGAGTKLVLT | kon | 3.7e+06 |

// next item, kon requested
INPUT: What does the data say about its kon? Entry: MAb 7H3 (antibody, V domains shown, Mouse monoclonal antibody from a hybridoma (ECACC 06081802); also called 7H3-N9) VH: EVKLEESGGGLVQPGGSMKLSCVASGFTFSDAWMDWVRQSPEKGLEWVAGIRNRANNHATYYVASVKGRFTVSRDDSKSSVYLQMNSLRAEDAGIYYCTRGDGYFFDYWGQGTTLTVSS VL: DVVLTQTPLSLSVSLGDQASISCRSGQSLVHSNGNTYLHWYLQKPGQSSKLLIYKVSNRLSGVPDRFSGSGSGTDFTLKISRVEAEDLGVYFCSQTTHVPPTFGGGTKLEIK
OUTPUT: 595000
